tested on: U2OS; assay: Multiplex assay against U2OS; assay type: toxicity, cell-based; details: human, 48 h, 1 µM, compound concentration 1 uM, replicate 1
Non-standard residues stand in square brackets, D forms with d. Residues, ends and D or L forms follow the SMILES beside them.
Listed below: Population Normal (%) values for each entry.
Please respond with the number in % and leave the unit unwritten.

[[record]]
molecule = "CCCCCCNC(=O)Nc1ccc(S(=O)(=O)Nc2ccc(CCNC[C@H](O)COc3ccc(O)cc3)cc2)cc1"
property_label = "Population Normal (%)"
measured_result = 98


Reported Population Normal (%) for COc1ccc2[nH]c(I)c(CCNC(C)=O)c2c1 was 98

Reported Population Normal (%) for Nc1nc(-c2ccco2)c2cnn(Cc3ccccc3F)c2n1 was 98

Reported Population Normal (%) for C[C@H](NC(=O)CNC(=O)c1cccc(Cl)c1)c1ccccc1 was 96

Reported Population Normal (%) for COc1ccc2c(c1OCc1ccccc1)C[C@@H](C(=O)O)N(C(=O)C(c1ccccc1)c1ccccc1)C2 was 96

Reported Population Normal (%) for CC(C)C[C@H](CO)Nc1nc(S[C@@H](C)c2ccccc2)nc2nc(N)sc12 was 97

Reported Population Normal (%) for Cn1cc(C(=O)OCC2CCN(CCNS(C)(=O)=O)CC2)c2ccccc21 was 98

Reported Population Normal (%) for O=C(NCCNCC(O)COc1ccc(O)cc1)N1CCOCC1.O=C(NCCNCC(O)COc1ccc(O)cc1)N1CCOCC1.O=C(O)/C=C/C(=O)O (stereo unspecified) [XAMOTEROL FUMARATE] was 98

Reported Population Normal (%) for CCCCC[C@H](O)/C=C/[C@H]1[C@H](O)CC(=O)[C@@H]1CCCCCCC(=O)O was 97

Reported Population Normal (%) for CN1CCC(C(=O)c2cccc(NC(=O)c3c(F)cc(F)cc3F)n2)CC1 was 97

Reported Population Normal (%) for Cc1cc(=O)n(C)c2cc(N3C(=O)CC[C@H](NS(=O)(=O)CC(C)C)[C@H]3c3ccc(Cl)cc3)ccc12 was 98

Reported Population Normal (%) for CN(C)C/C=C/C(=O)Nc1ccc(C(=O)N2CCCC(Nc3ncc(Cl)c(-c4c[nH]c5ccccc45)n3)C2)cc1 (stereo unspecified) was 96

Reported Population Normal (%) for COc1cc2nc(N3CCN(C(=O)c4ccco4)CC3)nc(N)c2cc1OC.Cl [PRAZOSIN HYDROCHLORIDE] was 97

Reported Population Normal (%) for Cc1cc(O)c(-c2ccc([C@@H](C)CN(C)C)cc2)c2c1[nH]c(=O)c1sccc12 was 82

Reported Population Normal (%) for CC(C)C[C@@H]1NC(=O)[C@@H](C(C)C)NC(=O)[C@@H]2CCCN2C(=O)[C@@H](CC(=O)O)NC(=O)[C@@H](Cc2c[nH]c3ccccc23)NC1=O [BQ-123] (cyclo(L[dW][dD]P[dV])) was 98

Reported Population Normal (%) for Cc1cc(-c2ccc3c(c2)CC[C@H]3N2CC3(CCN(C(=O)Cc4cn5cc(C)sc5n4)CC3)C2)ncn1 was 99
